The reader will find reported pest or weed control at 500 g/ha values listed item by item below.
System: pigweed (Amaranthus retroflexus)
Assay: Test A postemergence
Type: in vivo
Settings: Amaranthus retroflexus, post-emergence, 240 h, 500 g ai/ha, postemergence; 0 to 100 scale, 0 is no effect, 100 is complete control; read-out: Pigweed plant response rating
Respond numerically; units are % and should not be typed.

{"molecule-smiles": "CN1C[C@H](c2ccc(C#N)cc2)[C@@H](C(=O)Nc2cccc(F)c2F)C1=O", "observed-result": 60}
{"molecule-smiles": "CN1C[C@H](c2cc(F)cc(F)c2)[C@@H](C(=O)Nc2ncccc2Cl)C1=O", "observed-result": 0}
{"molecule-smiles": "CCc1cc(CC)cc([C@H]2CNC(=O)[C@@H]2C(=O)Nc2ccccc2F)c1", "observed-result": 0}
{"molecule-smiles": "O=C1NC[C@H](c2cc(C(F)F)cs2)[C@H]1C(=O)Nc1ccccc1F", "observed-result": 0}
{"molecule-smiles": "CSc1ccccc1NC(=O)[C@H]1C(=O)N(C)C[C@@H]1c1ccc(C(F)(F)F)nc1", "observed-result": 70}
{"molecule-smiles": "COc1ccc([C@H]2CN(C)C(=O)[C@@H]2C(=O)Nc2ccccc2F)c(OC)c1", "observed-result": 0}

Lookup: Tell me reported pest or weed control at 500 g/ha for CC(C)Oc1ccc([C@H]2CNC(=O)[C@@H]2C(=O)Nc2ccccc2F)cc1 , tested with pigweed (Amaranthus retroflexus).
Found: 0

Lookup: Reported pest or weed control at 500 g/ha for pigweed (Amaranthus retroflexus), given CCc1cc([C@H]2CN(C)C(=O)[C@@H]2C(=O)Nc2ccccc2F)cs1 ?
Found: 0

Lookup: Observed pest or weed control at 500 g/ha on pigweed (Amaranthus retroflexus) for CSc1ccccc1NC(=O)[C@H]1C(=O)N(C)C[C@@H]1c1cccc(C)c1 , please.
Found: 40

Lookup: Find pest or weed control at 500 g/ha (pigweed (Amaranthus retroflexus)) for the entry CN1C[C@H](c2csc(C(F)F)c2)[C@@H](C(=O)Nc2cccc(F)c2F)C1=O
Found: 40
